Assign IC50 to each entry below.
tested on: cerebellar granule cells; test: Protection of cerebellar granule cells against Fe2+-induced oxidative damage; assay type: cell-based, rats; settings: Rattus norvegicus, 0.75 h; 100 µM ferrous chloride, 45 min, TBARS in media; read-out: TBARS IC50
Numbers only, in µM.

Field: example entries. Status: answers known.
{"MOLECULE": "CC1(C)Cc2ccccc2C=[N+]1[O-] [Compound A, reference compound]", "IC50, µM": 307}
{"MOLECULE": "CC1(C)Cc2sccc2C=[N+]1[O-] [Compound 18]", "IC50, µM": 2600}

Let us move to another entry and its IC50.
# input Requested read-out IC50, target or system cerebellar granule cells, entry CC1(C)Cc2ccc3ccccc3c2C=[N+]1[O-] [Compound 10]
# output 104
